Source: the supplement of paper PMC13172266

tested on: U2932 parental; test: cell proliferation relative to vehicle (% of vehicle); higher = less growth inhibition; conditions: 50 nM; 72 h
recorded.metric: cell proliferation
Number, no unit, nothing else.

In: Look up cell proliferation: COc1cc2c(c(OC)c1OC)-c1c(cc3c(c1OC)OCO3)CC(C)C(C)C2 (stereo unspecified) [Schisandrin B (Sch B)]
Out: 97.2

In: Next compound: CC(=O)Nc1ccc(NC(=S)NC(=O)c2ccc(C(C)(C)C)cc2)cc1
Out: 102

In: Next compound: CC(C)(C(=O)NCC(F)(F)C(F)(F)F)C(=O)N[C@@H]1C(=O)Nc2ccccc2-c2ccccc21
Out: 98.7

In: Next compound: O=C(O)CCNc1cc(N2CCc3ccccc3CC2)nc(-c2ccccn2)n1
Out: 99.3

In: Next compound: CC(C)(C)c1nc(-c2cccc(NS(=O)(=O)c3c(F)cccc3F)c2F)c(-c2ccnc(N)n2)s1
Out: 101

In: Next compound: COC(=O)c1ccc2c(c1)NC(=O)/C2=C(\Nc1ccc(N(C)C(=O)CN2CCN(C)CC2)cc1)c1ccccc1
Out: 102

In: Next compound: CCCCCCCCCCCCc1ccc(S(=O)(=O)Nc2nncs2)cc1
Out: 101

In: Next compound: CC[C@H](CO)Nc1nc(NCc2ccccc2)c2ncn(C(C)C)c2n1 [Roscovitine (Seliciclib,CYC202)]
Out: 99.6

In: Next compound: CCCCC(C=O)NC(=O)C(CC(C)C)NC(=O)C(CC(C)C)NC(C)=O (stereo unspecified)
Out: 103

In: Next compound: Cc1cn(-c2cc(NC(=O)c3ccc(C)c(Nc4nccc(-c5cccnc5)n4)c3)cc(C(F)(F)F)c2)cn1
Out: 103

In: Next compound: O=C(/C=C/c1ccc2ccccc2n1)c1ccncc1
Out: 98.2

###

tested on: U2932 parental; test: cell proliferation relative to vehicle (% of vehicle); higher = less growth inhibition; conditions: 50 nM; 72 h
Where a name gives a salt, the structure may show the parent alone.
Field: cell proliferation. Provide a value for each of the molecules that follow.
Number, no unit, nothing else.

In: Look up cell proliferation: Cn1cncc1[C@@](N)(c1ccc(Cl)cc1)c1ccc2c(c1)c(-c1cccc(Cl)c1)cc(=O)n2C [Tipifarnib]
Out: 62.7

In: Next molecule: CS(=O)(=O)N1CCN(Cc2cc3nc(-c4cccc5[nH]ncc45)nc(N4CCOCC4)c3s2)CC1
Out: 85.4

In: Next molecule: COc1cc(Nc2c(C#N)cnc3cc(OCCCN4CCN(C)CC4)c(OC)cc23)c(Cl)cc1Cl [Bosutinib (SKI-606)]
Out: 98.5

In: Next molecule: Cc1cc(NC(=O)c2cccc(NC(=O)/C=C/CN(C)C)c2)ccc1Nc1nccc(-c2cccnc2)n1
Out: 96.8

In: Next molecule: CC#CC(=O)N1CCC[C@H]1c1nc(-c2ccc(C(=O)Nc3ccccn3)cc2)c2c(N)nccn12
Out: 77.4

In: Next molecule: CN(C)Cc1ccc(S(=O)(=O)n2ccc(/C=C/C(=O)NO)c2)cc1 [Resminostat]
Out: 93.4

In: Next molecule: Cc1nc(N)sc1-c1ccnc(Nc2ccc(N3CCOCC3)cc2)n1
Out: 103

In: Next molecule: CC(C)(C)c1cnc(CSc2cnc(NC(=O)C3CCNCC3)s2)o1
Out: 90.1

In: Next molecule: CCCCOc1c(C(=O)c2c(F)cc(C)cc2F)c[nH]c2nncc1-2
Out: 89.3

In: Next molecule: CCN(c1cc(-c2ccc(CN3CCOCC3)cc2)cc(C(=O)NCc2c(C)cc(C)[nH]c2=O)c1C)C1CCOCC1
Out: 89.5

In: Next molecule: CN(C)CCOc1ccc(/C(=C(/CCCl)c2ccccc2)c2ccccc2)cc1 [Toremifene Citrate]
Out: 101

###

tested on: U2932 TK216-resistant clone 2; experiment: cell proliferation relative to vehicle (% of vehicle); higher = less growth inhibition; settings: 50 nM; 72 h
Where a name gives a salt, the structure may show the parent alone.
Entry flag: Y if cell proliferation reaches 100; N if it does not.

In: Has CC#CC(=O)N1CCC[C@H]1c1nc(-c2ccc(C(=O)Nc3ccccn3)cc2)c2c(N)nccn12 a recorded cell proliferation greater than or equal to 100?
Out: N

In: Next molecule: OCCn1cc(-c2ccc3c(c2)CC/C3=N\O)c(-c2ccncc2)n1
Out: Y

In: Next molecule: Cc1ccc([C@@H]2O[C@H](CO)[C@@H](O)[C@H](O)[C@H]2O)cc1Cc1ccc(-c2ccc(F)cc2)s1 [Canagliflozin]
Out: N

In: Next molecule: COc1ccc(C2=N[C@@H](c3ccc(Cl)cc3)[C@@H](c3ccc(Cl)cc3)N2C(=O)N2CCNC(=O)C2)c(OC(C)C)c1 [Nutlin-3]
Out: Y

In: Next molecule: COCC[n+]1c2c(n(Cc3cnccn3)c1C)C(=O)c1ccccc1C2=O [YM155 (Sepantronium Bromide)]
Out: N

In: Next molecule: O=c1ncccn1[C@@H]1O[C@H](CO)[C@@H](O)[C@H]1O [Zebularine]
Out: Y

In: Next molecule: O=C(Cc1ccc(-c2ccc(OCCN3CCOCC3)cc2)cn1)NCc1ccccc1
Out: N

In: Next molecule: CN1CCN(Cc2ccc(-c3cnc4[nH]cc(-c5ccc6[nH]ccc6c5)c4c3)cc2)CC1
Out: N

In: Next molecule: C=C1/C(=C\C=C2/CCC[C@]3(C)[C@@H]([C@H](C)/C=C/[C@H](C)C(C)C)CC[C@@H]23)C[C@@H](O)C[C@@H]1O [Doxercalciferol]
Out: Y

In: Next molecule: N#Cc1c(Oc2ccc(F)c(NC(=O)Cc3cccc(C(F)(F)F)c3)c2)ccc2nc(NC(=O)C3CC3)sc12
Out: Y

In: Next molecule: O=NN(CCCl)C(=O)NC1CCCCC1 [Lomustine]
Out: Y

In: Next molecule: COc1ccc(F)c(F)c1C(=O)c1cnc(NC2CCN(S(C)(=O)=O)CC2)nc1N
Out: N

In: Next molecule: CC(C)N(CCCNC(=O)Nc1ccc(C(C)(C)C)cc1)C[C@H]1O[C@@H](n2cc(Br)c3c(N)ncnc32)[C@H](O)[C@@H]1O
Out: Y

In: Next molecule: CO[C@H]1C[C@@H]2CC[C@@H](C)[C@@](O)(O2)C(=O)C(=O)N2CCCC[C@H]2C(=O)O[C@H]([C@H](C)C[C@@H]2CC[C@@H](O)[C@H](OC)C2)CC(=O)[C@H](C)/C=C(\C)[C@@H](O)[C@@H](OC)C(=O)[C@H](C)C[C@H](C)/C=C/C=C/C=C/1C [Rapamycin (Sirolimus)]
Out: N

In: Next molecule: Cc1nc(N)sc1-c1ccnc(Nc2ccc(N3CCOCC3)cc2)n1
Out: N

In: Next molecule: CCCCNc1ncc2c(-c3ccc(CN4CCN(C)CC4)cc3)cn([C@H]3CC[C@H](O)CC3)c2n1
Out: N

In: Next molecule: O=C1c2c(O)ccc(O)c2C(=O)c2c(NCCNCCO)ccc(NCCNCCO)c21 [Mitoxantrone HCl]
Out: N

In: Next molecule: Cn1cc(CNCC2CCN(c3ncc(C(=O)NO)cn3)CC2)c2ccccc21
Out: N

###

Field: cell proliferation. Provide a value for each of the molecules that follow.
tested on: U2932 TK216-resistant clone 2; experiment: cell proliferation relative to vehicle (% of vehicle); higher = less growth inhibition; conditions: 50 nM; 72 h
Number, no unit, nothing else.

In: Look up cell proliferation: O=c1[nH]cc(F)c(=O)[nH]1
Out: 102

In: Next molecule: Nc1nc(F)nc2c1ncn2[C@@H]1O[C@H](COP(=O)(O)O)[C@@H](O)[C@@H]1O [Fludarabine Phosphate]
Out: 98.2

In: Next molecule: COc1cc(-c2cc(-c3ccc(N4CCNCC4)cc3)cnc2C)cc(OC)c1OC
Out: 99.7

In: Next molecule: Cc1ccc(S(=O)(=O)/C=C/C#N)cc1
Out: 107

In: Next molecule: CCCS(=O)(=O)Nc1ccc(F)c(C(=O)c2c[nH]c3ncc(-c4ccc(Cl)cc4)cc23)c1F
Out: 106

###

system: U2932 TK216-resistant clone 2; experiment: cell proliferation relative to vehicle (% of vehicle); higher = less growth inhibition; details: 500 nM; 72 h
Structures can show the parent of a compound that is named as a salt.
Entry flag: yes (1) if cell proliferation reaches 90; no (0) if it does not.

In: Has CCOc1cc(C(=O)N2CCC(N3CCN(C)CC3)CC2)ccc1Nc1ncc2c(n1)N(C1CCCC1)c1ccccc1C(=O)N2C a recorded cell proliferation greater than or equal to 90?
Out: no (0)

In: Next compound: CCCCCCCCCCCCCCCCCCOP(=O)([O-])OC1CC[N+](C)(C)CC1
Out: yes (1)

In: Next compound: O=C1c2c(O)ccc(O)c2C(=O)c2c(NCCNCCO)ccc(NCCNCCO)c21 [Mitoxantrone HCl]
Out: no (0)

In: Next compound: Cc1cc(Nc2nc(N[C@@H](C)c3ncc(F)cn3)ncc2Cl)[nH]n1
Out: yes (1)

In: Next compound: CCNc1nc(Nc2cc(F)c(C(=O)N3CCOCC3)cc2OC)ncc1C(F)(F)F
Out: yes (1)

In: Next compound: CNC(=O)c1cc(Oc2ccc(NC(=O)Nc3ccc(Cl)c(C(F)(F)F)c3)c(F)c2)ccn1
Out: yes (1)

In: Next compound: CC1(C)CC[C@]2(NC(=O)C(C)(F)F)CC[C@]3(C)[C@H](C(=O)C=C4[C@@]5(C)C=C(C#N)C(=O)C(C)(C)[C@@H]5CC[C@]43C)[C@@H]2C1 [Omaveloxolone (RTA-408)]
Out: no (0)
